Target: Anti-CD28 Fab (SEQ ID NOs: 696, 697)
Sequence (VH, as listed by the source, chain 1 of 2): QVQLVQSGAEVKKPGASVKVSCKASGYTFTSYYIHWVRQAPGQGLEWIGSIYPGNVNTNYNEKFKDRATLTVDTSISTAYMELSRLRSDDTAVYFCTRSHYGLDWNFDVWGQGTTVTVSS
Sequence (VL, as listed by the source, chain 2 of 2): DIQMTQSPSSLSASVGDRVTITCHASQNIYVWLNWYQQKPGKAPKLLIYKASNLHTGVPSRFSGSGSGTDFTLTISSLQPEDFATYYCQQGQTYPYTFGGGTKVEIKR
Experiment: phage binding ELISA; biotinylated anti-CD28 Fab on neutravidin plate, clonal phage supernatant, anti-M13 HRP detection
Where no end group is shown, it is not given here.
MEASURED QUANTITY: Anti-CD28 Fab (SEQ ID NOs: 696, 697) signal

- BINDER: "YCDGHMGVYYWKCL (cysteine pairing not given here; also: displayed on phage by fusion to pIII, pIII and linker sequence not given here) [Phage-705]"
  RECORDED RESULT: 2.01
- BINDER: "YCAGHLPEYMMKCL (cysteine pairing not given here; also: displayed on phage by fusion to pIII, pIII and linker sequence not given here) [Phage-698]"
  RECORDED RESULT: 2.03
- BINDER: "YCEGHSLEYMGKCL (cysteine pairing not given here; also: displayed on phage by fusion to pIII, pIII and linker sequence not given here) [Phage-703]"
  RECORDED RESULT: 2.02
- BINDER: "YCEGHAREHMAKCL (cysteine pairing not given here; also: displayed on phage by fusion to pIII, pIII and linker sequence not given here) [Phage-700]"
  RECORDED RESULT: 2.02
- BINDER: "YCDGHAPEYMEKCL (cysteine pairing not given here; also: displayed on phage by fusion to pIII, pIII and linker sequence not given here) [Phage-704]"
  RECORDED RESULT: 2.01
- BINDER: "YCDGHSHEYMEKCL (cysteine pairing not given here; also: displayed on phage by fusion to pIII, pIII and linker sequence not given here) [Phage-707]"
  RECORDED RESULT: 2.01
- BINDER: "YCDGHEAQYMSKCL (cysteine pairing not given here; also: displayed on phage by fusion to pIII, pIII and linker sequence not given here) [Phage-706]"
  RECORDED RESULT: 2.01
